Where do the numbers come from? From patent US20130030017A1.

System: Streptococcus pyogens (ATCC8668)
Test: Microtitre plate assay, IC90 determination (SPY 8668)
Format: cell-based
Details: 90% inhibitory concentration for bacterial growth, 37° C., 24 hours, resazurin fluorescence
MEASURE: IC90 SPY 8668 (µg/mL)

Study these solved cases before continuing.
COc1nc2ccc(Br)cc2cc1C(c1ccccc1)C(O)(CCc1ccccc1)CCN(C)C (racemic) [Compound 14] = 10.6
COc1nc2ccc(Br)cc2cc1C(c1ccccc1)C(O)(CCc1ccc(C(F)(F)F)cc1)CCN(C)C (racemic) = 1.9
COc1nc2ccc(Br)cc2cc1C(c1cccc(C)c1)C(O)(CCc1ccccc1)CCN(C)C (stereo not shown) = 43.5
COc1nc2ccc(Br)cc2cc1C(c1ccccc1)C(O)(CCc1ccc(F)cc1)CCN(C)C (stereo not shown) [Compound 28] = 3.9

(P) COc1nc2ccc(Br)cc2cc1C(c1ccc(Cl)cc1)C(O)(CCc1ccccc1)CCN(C)C (stereo not shown) [Compound 70]
(Q) COc1nc2cc(C)c(Br)cc2cc1C(c1ccccc1)C(O)(CCc1ccccc1)CCN(C)C (racemic)
(R) COc1ccc(C(c2cc3cc(Br)ccc3nc2OC)C(O)(CCc2ccccc2)CCN(C)C)cc1 (stereo not shown) [Compound 73]
Arrange these molecules by their IC90 SPY 8668, starting with the largest number. Answer by listing the labels in the requested order.
P, R, Q

---

Test system: methicilline resistant Staphylococcus aureus (MRSA) (a clinical isolate from the University of Antwerp)
Experiment: Microtitre plate assay, IC90 determination (STA RMETH)
Assay type: cell-based
Conditions: 90% inhibitory concentration for bacterial growth, 37° C., 24 hours, resazurin fluorescence
Documented IC90 STA RMETH across a set of compounds
Give just the numeric value; mg/L need not be written.

May I ask what IC90 STA RMETH has been recorded for COc1nc2ccc(Br)cc2cc1C(c1ccccc1)C(O)(CCc1ccccc1)CCN(C)C (racemic) [Compound 14] ?
13.4

May I ask what IC90 STA RMETH has been recorded for COc1nc2ccc(Br)cc2cc1C(c1ccccc1)C(O)(CCc1ccc(F)cc1)CCN(C)C (racemic) [Compound 50] ?
8.7

---

Documented IC90 across a set of compounds
Test system: methicilline resistant Staphylococcus aureus (MRSA) (a clinical isolate from the University of Antwerp)
Assay: Microtitre plate assay, IC90 determination (STA RMETH)
Format: cell-based
Details: 90% inhibitory concentration for bacterial growth, 37° C., 24 hours, resazurin fluorescence
Give just the numeric value; µg/mL need not be written.

COc1nc2ccc(Br)cc2cc1C(c1ccc(C)cc1)C(O)(CCc1ccccc1)CCN(C)C (stereo not shown) = 10.9
COc1ccc(C(c2cc3cc(Br)ccc3nc2OC)C(O)(CCc2ccccc2)CCN(C)C)cc1 (stereo not shown) = 12.6
COc1nc2ccc(Br)cc2cc1C(c1ccccc1)C(O)(CCc1cccc2ccccc12)CCN(C)C (stereo not shown) = 1.9

Consider the additional compound presented here.
May I ask what IC90 has been recorded for COc1nc2ccc(Br)cc2cc1C(c1ccc(Cl)cc1)C(O)(CCc1ccccc1)CCN(C)C (stereo not shown) ?
12.7

---

Test system: Staphylococcus aureus (ATCC29213)
Experiment: Microtitre plate assay, IC90 determination (STA 29213)
Assay type: cell-based
Settings: Staphylococcus aureus, ATCC29213, 24 h, 90% inhibitory concentration for bacterial growth, 37° C., resazurin fluorescence
MEASURE: IC90 (µg/mL)

COc1nc2ccc(Br)cc2cc1C(c1cccc(C)c1)C(O)(CCc1ccc(F)cc1)CCN(C)C (stereo not shown) = 1.8

(I) COc1nc2ccc(Br)cc2cc1C(c1ccc(Cl)cc1)C(O)(CCc1cccc(OC(F)(F)F)c1)CCN(C)C (stereo not shown)
(II) COc1nc2ccc(-c3cccnc3)cc2cc1C(c1ccccc1)C(O)(CCc1ccccc1)CCN(C)C (stereo not shown)
Could you check which of I and II has a smaller value for IC90? Lab note: record the label of whichever item you select.
II
(II: 1.7 µg/mL, I: 32.7 µg/mL)

---

Test system: Streptococcus pyogens (ATCC8668)
Experiment: Microtitre plate assay, IC90 determination (SPY 8668)
Format: cell-based
Conditions: 90% inhibitory concentration for bacterial growth, 37° C., 24 hours, resazurin fluorescence
MEASURE: IC90 SPY 8668 (mg/L)

Study these solved cases before continuing.
COc1nc2ccc(Br)cc2cc1C(c1ccccc1)C(O)(CCc1ccccc1)CCN(C)C (stereo not shown) [Compound 18] = 8.5
COc1nc2ccc(Br)cc2cc1C(c1ccccc1)C(O)(CCc1ccc(F)cc1)CCN(C)C (racemic) [Compound 50] = 1.7

(a) COc1nc2ccc(Br)cc2cc1C(c1cccc(Cl)c1)C(O)(CCc1ccc(F)cc1)CCN(C)C (stereo not shown)
(b) COc1nc2ccc(C)cc2cc1C(c1ccccc1)C(O)(CCc1ccccc1)CCN(C)C (stereo not shown) [Compound 1]
Could you check which of a and b has a smaller value for IC90 SPY 8668? Lab note: record the label of whichever item you select.
a
(a: 3.3 mg/L, b: 7.4 mg/L)

---

System: Enterococcus faecalis (ATCC29212)
Assay: Microtitre plate assay, IC90 determination (EFA 29212)
Type: cell-based
Details: Enterococcus faecalis, ATCC29212, 24 h, 90% inhibitory concentration for bacterial growth, 37° C., resazurin fluorescence
MEASURE: IC90 (mg/L)

CSc1nc2ccc(Br)cc2cc1C(c1ccc(Cl)cc1)C(O)(CCc1ccccc1)CCN(C)C (stereo not shown) = 58.4

(P) COc1nc2ccc(Br)cc2cc1C(c1cccc(Cl)c1)C(O)(CCc1ccc(F)cc1)CCN(C)C (stereo not shown)
(Q) COc1nc2ccc(Br)cc2cc1C(c1cccc(C)c1)C(O)(CCc1ccccc1)CCN(C)C (stereo not shown)
(R) COc1nc2ccc(Br)cc2cc1C(c1ccccc1)C(O)(CCc1cccc2ccccc12)CCN(C)C (stereo not shown)
# rank by IC90, ascending (min first) Answer by listing the labels in the requested order.
R, P, Q
(R: 1.9 mg/L, P: 9.3 mg/L, Q: 54.8 mg/L)

---

Test system: Enterococcus faecalis (ATCC29212)
Assay: Microtitre plate assay, IC90 determination (EFA 29212)
Format: cell-based
Conditions: Enterococcus faecalis, ATCC29212, 24 h, 90% inhibitory concentration for bacterial growth, 37° C., resazurin fluorescence
MEASURE: IC90 (µg/mL)

Study these solved cases before continuing.
CSc1nc2ccc(Br)cc2cc1C(c1ccccc1)C(O)(CCc1ccccc1)CCN(C)C (centres unmarked) = 43.7
COc1nc2ccc(Br)cc2cc1C(c1ccc(Cl)cc1)C(O)(CCc1ccc(C)cc1)CCN(C)C (centres unmarked) = 11.6
COc1nc2ccc(C)cc2cc1C(c1ccccc1)C(O)(CCc1ccccc1)CCN(C)C (centres unmarked) = 37.2
CN(C)CCC(O)(CCc1ccccc1)C(c1ccc(Cl)cc1)c1cc2cc(Br)ccc2nc1N(C)C (centres unmarked) = 1.8
CCOCCOCCOc1nc2ccc(Br)cc2cc1C(c1ccccc1)C(O)(CCc1ccccc1)CCN(C)C (centres unmarked) = 10.1
COc1nc2ccc(Br)cc2cc1C(c1ccccc1)C(O)(CCc1ccc(F)cc1)CCN1CCCCC1 (centres unmarked) = 59.2

(A) COc1nc2ccc(Br)cc2cc1C(c1cccc(Cl)c1)C(O)(CCc1ccccc1)CCN(C)C (centres unmarked)
(B) COc1nc2ccc(Br)cc2cc1C(c1ccccc1)C(O)(CCN(C)C)Cc1cccc2ccccc12 (centres unmarked)
Could you check which of A and B has a smaller value for IC90? Lab note: record the label of whichever item you select.
B
(B: 22.7 µg/mL, A: 56.8 µg/mL)

---

MEASURE: melting point (°C)

Study these solved cases before continuing.
COc1ccc(CCC(O)(CCN(C)C)C(c2ccc(Cl)cc2)c2cc3cc(Br)ccc3nc2OC)cc1 (stereo not shown) [Compound 21] = 142
COc1nc2ccc(Br)cc2cc1C(c1ccccc1)C(O)(CCc1ccc(F)cc1)CCN1CCCCC1 (stereo not shown) [Compound 34] = 194
CSc1nc2ccc(Br)cc2cc1C(c1ccccc1)C(O)(CCc1ccccc1)CCN(C)C (stereo not shown) [Compound 10] = 191
CNCCC(O)(CCc1ccc(F)cc1)C(c1ccccc1)c1cc2cc(Br)ccc2nc1OC (stereo not shown) [Compound 39] = 140

(A) COc1nc2cccc(Br)c2cc1C(c1ccccc1)C(O)(CCc1ccccc1)CCN(C)C (stereo not shown) [Compound 5]
(B) CCOCCOCCOc1nc2ccc(Br)cc2cc1C(c1ccccc1)C(O)(CCc1ccccc1)CCN(C)C (stereo not shown) [Compound 43]
Larger number for melting point: A , or B ? Lab note: record the label of whichever item you select.
A

---

Test system: Streptococcus pyogens (ATCC8668)
Assay: Microtitre plate assay, IC90 determination (SPY 8668)
Type: cell-based
Settings: 90% inhibitory concentration for bacterial growth, 37° C., 24 hours, resazurin fluorescence
Procedure: The bacteria used in this study were grown overnight in flasks containing 100 ml Mueller-Hinton Broth (Becton Dickinson—cat. no. 275730) in sterile de-ionized water, with shaking, at 37° C. Stocks (0.5 ml/tube) were stored at −70° C. until use. Bacteria titrations were performed in microtiter plates and colony forming units (CFUs) were determined. In general, an inoculum level of approximately 100 CFUs was used for susceptibility testing. […]
MEASURE: IC90 SPY 8668 (µg/mL)

Study these solved cases before continuing.
COc1nc2ccc(Br)cc2cc1C(c1ccc(Cl)cc1)C(O)(CCc1ccccc1)CCN(C)C (centres unmarked) [Compound 69] = 4.0
COc1nc2ccc(Br)cc2cc1C(c1ccccc1)C(O)(CCc1ccc(F)cc1)CCN(C)C (racemic) [Compound 49] = 43.8
COc1nc2ccc(Br)cc2cc1C(c1ccccc1)C(O)(CCc1ccccc1)CCN(C)C (racemic) [Compound 15] = 4.2

(a) COc1ccc(C(c2cc3cc(Br)ccc3nc2OC)C(O)(CCc2ccccc2)CCN(C)C)cc1 (centres unmarked) [Compound 74]
(b) COc1nc2ccc(-c3cccs3)cc2cc1C(c1ccccc1)C(O)(CCc1ccccc1)CCN(C)C (racemic)
Larger number for IC90 SPY 8668: a , or b ? Lab note: record the label of whichever item you select.
b
(b: 21.4 µg/mL, a: 1.8 µg/mL)
